- ASSAY_SUMMARY: Multiple ascending dose (MAD) pharmacokinetics in healthy volunteers, BID for 14 days
- Type: in vivo, human
- RECORDED_CONDITIONS: human, plasma, oral, 300 mg, 300 mg BID, Day 1, plasma; read-out: Cmax, geometric mean (Geo CV%)
MEASURE: Cmax (ng/mL)
Lab book: enter the figure in ng/mL, no units written.

Query string: Query: Cmax; subject: CC(=O)N1CCC(COc2cc(F)c3c(=O)[nH]c(CSC4CCOCC4)nc3c2)CC1 [RBN‐3143]
Result string: 907

---

- ASSAY_SUMMARY: Multiple ascending dose (MAD) pharmacokinetics in healthy volunteers, BID for 14 days
- Format: in vivo, human
- RECORDED_CONDITIONS: human, plasma, oral, 300 mg, 300 mg BID, Day 14, plasma; read-out: Cmax, mean (SD)
MEASURE: Cmax (ng/mL)
Lab book: enter the figure in ng/mL, no units written.

Query string: Query: Cmax; subject: CC(=O)N1CCC(COc2cc(F)c3c(=O)[nH]c(CSC4CCOCC4)nc3c2)CC1
Result string: 1470

FYI, the data here is from paper PMC12209991.
